Provide the recorded inhibition of ligand binding for the entries that follow.
target: Estrogen receptor (Homo sapiens) (UniProt P03372); assay: ERalpha ligand binders by competition, primary screen, cell-based, Cos7 ERalpha-GFP, flow cytometry (AID 1211); settings: fluorescent ligand competition, binding inhibition, at 0.1 µM, stronger effect = higher value;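 also: 0% = DMSO vehicle wells and 100% = no E2-Alexa633 signal left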
Sequence (P03372 whole entry, looked up): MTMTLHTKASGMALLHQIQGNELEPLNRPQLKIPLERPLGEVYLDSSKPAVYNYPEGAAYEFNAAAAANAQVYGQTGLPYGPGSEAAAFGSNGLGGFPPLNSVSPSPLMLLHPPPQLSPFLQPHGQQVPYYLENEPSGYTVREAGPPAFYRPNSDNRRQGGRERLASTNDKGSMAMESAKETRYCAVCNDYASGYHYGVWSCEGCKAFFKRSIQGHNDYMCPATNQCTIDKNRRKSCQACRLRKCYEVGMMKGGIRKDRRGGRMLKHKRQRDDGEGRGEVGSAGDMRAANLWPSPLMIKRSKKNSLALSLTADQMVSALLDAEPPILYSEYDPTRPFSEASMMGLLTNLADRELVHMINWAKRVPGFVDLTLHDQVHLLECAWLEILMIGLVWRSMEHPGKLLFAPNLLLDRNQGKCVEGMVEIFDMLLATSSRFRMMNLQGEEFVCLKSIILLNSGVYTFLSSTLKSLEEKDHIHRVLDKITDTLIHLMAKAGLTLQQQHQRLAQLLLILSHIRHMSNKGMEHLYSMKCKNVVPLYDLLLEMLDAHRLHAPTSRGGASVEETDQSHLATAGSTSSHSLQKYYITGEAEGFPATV
Hi, when you answer, please include the unit after the number. Thanks!

Answered examples (10):
# COMPOUND, STUDY SYSTEM, READING
records = [
    ("O=C(CSc1nnc(-c2ccc(OC(F)F)cc2)o1)NC(=O)NCc1ccco1", "Estrogen receptor (Homo sapiens) (UniProt P03372)", "26%"),
    ("Oc1ccc(-c2nc3ccc4ccccc4c3c3c2CCC3)cc1O", "Estrogen receptor (Homo sapiens) (UniProt P03372)", "44%"),
    ("CCSc1nnc(NC(=O)C2Cc3ccccc3CN2C(=O)c2ccco2)s1 (configuration not stated)", "Estrogen receptor (Homo sapiens) (UniProt P03372)", "44%"),
    ("O=c1oc2ccccc2cc1-c1ccc(O)cc1O", "Estrogen receptor (Homo sapiens) (UniProt P03372)", "18%"),
    ("COc1cc(OC)cc(C(=O)NC2CCN(C(=O)N3c4ccccc4Sc4ccccc43)CC2)c1", "Estrogen receptor (Homo sapiens) (UniProt P03372)", "22%"),
    ("CN(CC(=O)NC(=O)NCc1ccco1)Cc1nc2ccccc2c(=O)[nH]1", "Estrogen receptor (Homo sapiens) (UniProt P03372)", "64%"),
    ("Cn1ccnc1SCC(=O)Nc1ccc2nc(SCC(=O)NC3CC3)sc2c1", "Estrogen receptor (Homo sapiens) (UniProt P03372)", "78%"),
    ("Cc1ccccc1Nc1nnc(SCC(=O)NC(=O)NCc2ccco2)s1", "Estrogen receptor (Homo sapiens) (UniProt P03372)", "50%"),
    ("O=C(Nc1cnn(C23CC4CC(CC(C4)C2)C3)c1)c1cnn2c(C(F)(F)F)cc(-c3ccco3)nc12", "Estrogen receptor (Homo sapiens) (UniProt P03372)", "25%"),
    ("CC(=O)c1cccc(NC(=O)Cc2cccs2)c1", "Estrogen receptor (Homo sapiens) (UniProt P03372)", "40%"),
]

Give inhibition of ligand binding for each listed item.
1. COc1ccc(N2C(=O)c3ccccc3NC2c2ccc(OC)c(CSc3ccccn3)c2)cc1 (configuration not stated)
2. C1=C(N2CCOCC2)/C(=C/c2nc3ccccc3[nH]2)CC1
3. COc1cc(C=C(c2nc3ccccc3s2)c2nc3ccccc3s2)ccc1O
4. COC(=O)c1c(NC(=O)Cc2cccs2)sc2c1CCCC2
5. N=C1C(c2nc3ccccc3[nH]2)=C(O)CN1c1ccc(CC(=O)O)cc1
6. C/C(N)=C(/C#N)C(=O)CSc1nnnn1-c1ccc(C)cc1
7. NC(=O)c1c(NC(=O)c2cccs2)sc2c1CCCCCC2
8. Oc1ccc(-c2nc(-c3ccc(O)c(O)c3)cs2)cc1

Result:
1. 19%
2. 41%
3. 35%
4. 70%
5. 96%
6. 14%
7. 22%
8. 39%

====

target: Estrogen receptor (Homo sapiens); assay: ERalpha ligand binders by competition, primary screen, cell-based, Cos7 ERalpha-GFP, flow cytometry (AID 1211); details: fluorescent ligand competition, at 10 µM, stronger effect = higher value;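 also: 0% = DMSO vehicle wells and 100% = no E2-Alexa633 signal left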
Answer each item with its documented inhibition of ligand binding.
Numbers only, in %.

Look over these answered cases.
# MOLECULE, UNIT NAME, READING
data = [
    ("CC1CCc2c(sc(NC(=O)c3ccc(Cn4cc([N+](=O)[O-])cn4)o3)c2C#N)C1 (stereo not given)", "%", 44),
    ("CCc1cc2c3c(c(=O)oc2cc1OCC(=O)OC)CCCC3", "%", 3),
    ("COc1cc(C2C3C(C)N(C)C(=O)N(C)C3N(C)C(=O)N2C)ccc1O (stereo not given)", "%", 0),
    ("Cc1ccc(-c2n[nH]c(=S)n2/N=C/C=C/c2ccccc2[N+](=O)[O-])cc1", "%", 1),
]

Q: Recall the reported inhibition of ligand binding of `CN1CCc2cccc3c2[C@@H]1Cc1ccc(O)c(O)c1-3` when tested on Estrogen receptor (Homo sapiens).
Result: 42

====

target: Estrogen receptor (Homo sapiens) (UniProt P03372); experiment: ERalpha ligand binders by competition, primary screen, cell-based, Cos7 ERalpha-GFP, flow cytometry (AID 1211); conditions: fluorescent ligand competition, binding inhibition, at 0.1 µM, stronger effect = higher value;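 also: 0% = DMSO vehicle wells and 100% = no E2-Alexa633 signal left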
Kindly supply the reported inhibition of ligand binding values for the records listed here.
Numbers only, in %.

Take a look at these entries with their results.
# COMPOUND, STUDY SYSTEM, READOUT, READING
data = [
    ("O=C(Cc1cccs1)Nc1ccc(-c2nnn(CC(=O)N3CCOCC3)n2)cc1", "Estrogen receptor (Homo sapiens) (UniProt P03372)", "inhibition of ligand binding", 55),
    ("Cn1c(-c2ccc3nc(N)sc3c2)nc2cc(N)ccc21", "Estrogen receptor (Homo sapiens) (UniProt P03372)", "inhibition of ligand binding", 37),
    ("COc1ccc(C2Nc3ccccc3C(=O)N2c2ccc(Cl)cc2)cc1Cn1cc([N+](=O)[O-])cn1 (stereo not given)", "Estrogen receptor (Homo sapiens) (UniProt P03372)", "inhibition of ligand binding", 49),
    ("O=C(Nc1nc(-c2ccc(S(=O)(=O)N3CCOCC3)cc2)cs1)c1ccccc1", "Estrogen receptor (Homo sapiens) (UniProt P03372)", "inhibition of ligand binding", 25),
]

Q: Name the recorded inhibition of ligand binding of the item `Cc1c(N=Cc2ccc(O)c(Br)c2)cccc1[N+](=O)[O-]` in your answer.
Result: 23

====

target: Estrogen receptor (Homo sapiens); test: ERalpha ligand binders by competition, primary screen, cell-based, Cos7 ERalpha-GFP, flow cytometry (AID 1211); conditions: fluorescent ligand competition, binding inhibition, at 0.1 µM, stronger effect = higher value;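 also: 0% = DMSO vehicle wells and 100% = no E2-Alexa633 signal left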
Output yes for inhibition of ligand binding not less than 30%; output no otherwise.

Use these answered entries as a reference point.
# MOLECULE, ASSIGNED CLASS
rows = [
    ("Cc1ccccc1Nc1nnc(SCC(=O)NCc2ccco2)s1", "no"),
    ("O=C(COC(=O)c1ccccc1)NCc1ccco1", "no"),
    ("N=c1c(C(=O)NCc2ccc(F)cc2)cc2c(=O)n3ccccc3nc2n1Cc1cccnc1", "no"),
]

Q: Check the entry `COC(=O)C1=C(O)/C(=C\c2ccc(CNC(=O)C(=O)Nc3ccc(C)c(C)c3)o2)N=C1C` : does inhibition of ligand binding equal or exceed 30%?
Result: yes

Q: Test whether the molecule `Cc1ccccc1CSCC(=O)NC(=O)NCc1ccco1` records inhibition of ligand binding of 30% or higher.
Result: no

Q: Exam item: decide whether the reported inhibition of ligand binding for Cc1ccc2[nH]c(=O)c(C3C(C#N)=C(N)Oc4c3ccc3cccnc43)cc2c1 (stereo unspecified) is at least 30%.
Result: no

Q: Identify whether the reported inhibition of ligand binding of the following molecule is 30% or greater: `O=C(Nc1nccs1)c1nc(-c2ccccc2)n(-c2ccccc2)n1`
Result: yes

Q: Is the recorded value of inhibition of ligand binding equal to or greater than 30% for this molecule? `COc1ccc2c(c1)c(=O)oc1cc(OCC(=O)N3CCC(C)CC3)ccc12`
Result: no

Q: State whether the measured inhibition of ligand binding reaches 30%, counting equality as reaching it, for `Nc1ccc(-c2cc(-c3ccc(N)cc3)nc(-c3ccccc3)n2)cc1`
Result: no

Q: Test whether the molecule `CCc1cccc2c(C(=O)Cn3nnc(-c4ccc(OC)c(OC)c4)n3)c[nH]c12` records inhibition of ligand binding of 30% or higher.
Result: no

Q: Check if inhibition of ligand binding >= 30% (inclusive). Item: O=C(O)C1CSC(c2coc3ccccc3c2=O)N1 (stereo unspecified)
Result: yes

====

target: Estrogen receptor (Homo sapiens); test: ERalpha ligand binders by competition, primary screen, cell-based, Cos7 ERalpha-GFP, flow cytometry (AID 1211); conditions: fluorescent ligand competition, at 10 µM, stronger effect = higher value;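 also: 0% = DMSO vehicle wells and 100% = no E2-Alexa633 signal left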
So basically: inhibition of ligand binding at 30% or higher? That is 1 (yes). Lower than 30%? That is 0 (no).

Look over these answered cases.
# COMPOUND, ASSIGNED CLASS
data = [
    ("CCCSC1=N/C(=C\\C=C\\c2ccco2)C(=O)S1", "0 (no)"),
    ("Cc1cc(=O)oc2c(CN3CCC(C)CC3)c(O)c(Cl)cc12", "0 (no)"),
    ("COC(=O)C1=C(O)/C(=C\\c2ccc(CNC(=O)C(=O)Nc3ccc(C)c(C)c3)o2)N=C1C", "1 (yes)"),
    ("COc1cccc([C@@H]2Oc3ccc(OC)cc3C(=O)[C@H]2O)c1", "1 (yes)"),
    ("CCN(c1ccccc1)S(=O)(=O)c1cc(C(=O)O)ccc1C", "0 (no)"),
]

Q: Check if inhibition of ligand binding >= 30% (inclusive). Item: `NC(=O)c1ccsc1NC(=O)COC(=O)Cc1ccsc1`
Result: 1 (yes)

Q: Hi, just wondering whether `O=c1oc2ccccc2n1CCn1c2ccccc2c2nc3ccccc3nc21` shows inhibition of ligand binding of 30% or higher.
Result: 0 (no)

Q: Is inhibition of ligand binding for `COC(=O)c1[nH]c2ccc(C)cc2c1NC(=O)CN1CCCc2ccccc21` at or above 30%?
Result: 1 (yes)

Q: Confirm if inhibition of ligand binding reported for the compound CC1=CC(C)C2(CO)COC(c3ccccc3O)C1C2C (centres undefined) is 30% or above.
Result: 0 (no)

Q: Quick check: does COc1ccc(C2Nc3ccccc3C(=O)N2Cc2ccccc2)cc1Cn1nnc2ccccc21 (centres undefined) have inhibition of ligand binding greater than or equal to 30%?
Result: 1 (yes)

Q: Identify whether the reported inhibition of ligand binding of the following compound is 30% or greater: `CC1CCN(S(=O)(=O)c2ccc(NC(=O)Cc3cccs3)cc2)CC1`
Result: 1 (yes)

Q: Evaluate `CC1(C)Cc2[nH]c3ccccc3c2C(C)(C)N1` : inhibition of ligand binding at minimum 30%?
Result: 0 (no)

Q: Determine whether measured inhibition of ligand binding meets or exceeds 30% for `Cc1nc2ccccc2n1-c1cc(C(C)(C)C)c(O)c(C(C)(C)C)c1`
Result: 0 (no)

Q: Record COc1cc2c(c([N+](=O)[O-])c1)NC(c1ccc(Br)cc1)C1CC=CC21 (centres undefined) ; criterion: inhibition of ligand binding no lower than 30%. Met?
Result: 0 (no)

Q: Does the reported inhibition of ligand binding for `Cc1csc2nc(CCNS(=O)(=O)c3ccc4c(c3)OCCO4)cn12` fall at or above the 30% mark?
Result: 1 (yes)

Q: Could you tell me if the measured inhibition of ligand binding of `CSC(=O)CNC1(Cc2ccc(O)cc2)CCCCC1` reaches 30% or more?
Result: 0 (no)

Q: Check this compound for inhibition of ligand binding at or above 30%: `NC(=O)c1c(NC(=O)c2cc3ccccc3o2)sc2c1CCC2`
Result: 1 (yes)

Q: Hello, I need to know if O=C(COC(=O)C1CC2C=CC1C2)NCc1ccco1 (centres undefined) has measured inhibition of ligand binding not below 30%. Thanks!
Result: 0 (no)

Q: hey, is inhibition of ligand binding for this one >= 30%? `N=C1C(c2nc3ccccc3[nH]2)=C(O)CN1c1ccc(CC(=O)O)cc1`
Result: 1 (yes)

Q: Is reported inhibition of ligand binding greater than or equal to 30% here: `CC1(C)CCCN(C(=O)c2coc(=O)c(Br)c2)C1`
Result: 1 (yes)

Q: Exam item: decide whether the reported inhibition of ligand binding for `COC(=O)c1ccc(CC(=O)c2c(C)cc(O)cc2O)o1` is at least 30%.
Result: 1 (yes)

Q: API: above_or_equal(metric=inhibition of ligand binding, cutoff=30%) for item O=C(c1cccs1)N1N=C(c2ccccc2)CC1c1ccc(O)cc1 (centres undefined)
Result: 0 (no)

Q: Is inhibition of ligand binding at least 30%? Consider COc1ccc(C2CC(c3c(-c4ccccc4)c4cc(Cl)ccc4[nH]c3=O)=NN2S(C)(=O)=O)cc1OC (centres undefined)
Result: 0 (no)
